Tested On: hP2X3 (human Purinergic P2X receptors subtype 3), clone B (Homo sapiens)
Sequence (P56373 1-397): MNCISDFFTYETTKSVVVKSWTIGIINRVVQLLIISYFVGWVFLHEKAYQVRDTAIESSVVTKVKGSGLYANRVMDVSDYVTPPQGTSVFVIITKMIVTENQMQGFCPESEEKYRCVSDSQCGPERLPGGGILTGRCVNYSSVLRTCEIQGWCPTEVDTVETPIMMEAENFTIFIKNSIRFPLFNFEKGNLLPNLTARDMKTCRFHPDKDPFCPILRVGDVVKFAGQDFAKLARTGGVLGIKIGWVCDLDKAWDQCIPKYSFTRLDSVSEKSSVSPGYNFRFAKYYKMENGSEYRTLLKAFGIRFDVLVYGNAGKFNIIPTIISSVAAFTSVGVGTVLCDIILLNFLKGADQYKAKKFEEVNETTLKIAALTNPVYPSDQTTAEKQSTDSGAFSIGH
Procedure Text: hP2X3 FLIPR calcium (Fluo-4) antagonist assay, clone B
Experimental Parameters: Human P2X3 FLIPR Clone B IC50 (nM), RLE cells expressing hP2X3 clone B (NM_002559); agonist 500 nM α,β-methylene-ATP
Parameter Measured: IC50 (nM)

1. CC(=O)N1CCN(c2nc(NC(Cc3ccccc3)c3ccccc3)c3c(n2)C(=O)N(C(C)C)C3)CC1 (stereo not shown) [Example 88]
2. CC(=O)N1CCN(c2nc(N[C@@H](C)c3ccc(OC(CF)CF)cc3)c3c(n2)C(=O)N(C(C)C)C3)CC1 [Example 251]
3. CC(=O)c1ccc(CC2CCCN2c2nc(N3CCN(C(C)=O)CC3)nc3c2CN(C(C)C)C3=O)cc1 (stereo not shown) [Example 294]
4. CC(=O)N1CCN(c2nc(NCc3cnc4ccccc4c3)c3c(n2)C(=O)N(C(C)C)C3)CC1C (stereo not shown) [Example 142]
Put the above entries in order of falling IC50. Please respond by ranking the labels in the order requested.
2, 1, 3, 4

###

Tested On: rat P2X2/3 (rat P2X3 co-expressed with rat P2X2) (Rattus norvegicus, UniProt P49653+P49654)
Sequence (P49654 1-397): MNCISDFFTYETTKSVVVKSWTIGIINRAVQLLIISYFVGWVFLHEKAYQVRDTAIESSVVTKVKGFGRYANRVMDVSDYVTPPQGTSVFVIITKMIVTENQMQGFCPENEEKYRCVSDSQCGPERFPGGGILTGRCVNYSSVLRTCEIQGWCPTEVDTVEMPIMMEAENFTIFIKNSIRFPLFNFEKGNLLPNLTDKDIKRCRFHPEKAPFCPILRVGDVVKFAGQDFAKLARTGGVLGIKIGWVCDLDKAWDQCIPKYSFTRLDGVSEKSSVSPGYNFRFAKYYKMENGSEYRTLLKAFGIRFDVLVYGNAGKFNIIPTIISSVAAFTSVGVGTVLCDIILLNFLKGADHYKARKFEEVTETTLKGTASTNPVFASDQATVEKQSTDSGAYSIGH
Sequence (P49653 1-472): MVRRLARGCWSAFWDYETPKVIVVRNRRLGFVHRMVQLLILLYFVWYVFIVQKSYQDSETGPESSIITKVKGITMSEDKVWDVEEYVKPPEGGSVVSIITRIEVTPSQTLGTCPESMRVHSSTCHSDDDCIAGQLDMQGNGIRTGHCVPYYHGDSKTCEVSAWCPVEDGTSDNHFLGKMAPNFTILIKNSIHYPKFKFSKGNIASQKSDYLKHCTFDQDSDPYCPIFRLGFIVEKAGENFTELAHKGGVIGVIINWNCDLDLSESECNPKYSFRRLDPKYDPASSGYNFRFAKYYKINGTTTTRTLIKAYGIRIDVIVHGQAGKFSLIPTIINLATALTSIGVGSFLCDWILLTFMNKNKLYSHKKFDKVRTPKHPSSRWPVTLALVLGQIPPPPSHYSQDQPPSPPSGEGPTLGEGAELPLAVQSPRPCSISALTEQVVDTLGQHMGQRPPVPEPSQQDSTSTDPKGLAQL
Procedure Text: rat P2X2/3 FLIPR calcium (Fluo-4) antagonist assay
Experimental Parameters: Rat P2X2/3 FLIPR Mean IC50 (nM), HEK-TREX cells, tetracycline-induced rat P2X3 with constitutive rat P2X2; agonist 500 nM α,β-methylene-ATP
Parameter Measured: IC50 (nM)

{"Compound": "CC(C)N1Cc2c(NC(C)(C)Cc3ccc(F)cc3)nc(N3CCN4C(=O)OC[C@H]4C3)nc2C1=O [Example 140]", "Unit Of Measurement": "nM", "IC50": 8470}
{"Compound": "CC(=O)N1CCN(c2nc3c(c(N4CCCC4c4cnc5ccccc5c4)n2)CN(C(C)C)C3=O)CC1 (single isomer, unassigned) [Example 282]", "Unit Of Measurement": "nM", "IC50": 2530}
{"Compound": "CC(=O)N1CCN(c2nc(N[C@H](C)c3ccc4ncccc4c3)c3c(n2)C(=O)N(C(C)C)C3)CC1 [Example 243]", "Unit Of Measurement": "nM", "IC50": 1240}
{"Compound": "CC(=O)N1CCN(c2nc3c(c(N4CCCC4c4cc(C)cc(C)c4)n2)CN(C(C)C)C3=O)CC1 (stereo not shown) [Example 270]", "Unit Of Measurement": "nM", "IC50": 9910}
{"Compound": "CC(=O)N1CCN(c2nc(NC(C)(C)Cc3ccc(C)cc3)c3c(n2)C(=O)N(C(C)C)C3)CC1 [Example 164]", "Unit Of Measurement": "nM", "IC50": 2910}
{"Compound": "CC(C)N1Cc2c(NC3c4cccnc4CCc4c(F)cccc43)nc(N(C)CCN(C)C)nc2C1=O (stereo not shown) [Example 121]", "Unit Of Measurement": "nM", "IC50": 4580}
{"Compound": "CC(=O)N1CCN(c2nc3c(c(N4CCCCC4Cc4ccc(F)cc4)n2)CN(C(C)C)C3=O)CC1 (stereo not shown) [Example 268]", "Unit Of Measurement": "nM", "IC50": 12400}
{"Compound": "CC(=O)N1CCN(c2nc(NC(c3ccccc3)c3ccccc3)c3c(n2)C(=O)N(C(C)C)C3)CC1 [Example 72]", "Unit Of Measurement": "nM", "IC50": 2110}
{"Compound": "CC(=O)N1CCN(c2nc3c(c(N4CCCC4c4cnc5ccccc5c4)n2)CN(C(C)C)C3=O)CC1 (single isomer, unassigned) [Example 283]", "Unit Of Measurement": "nM", "IC50": 253}
{"Compound": "CC(=O)N1CCN(c2nc(N[C@H](C)c3ccc4c(c3)CCCC4)c3c(n2)C(=O)N(C(C)C)C3)CC1 [Example 166]", "Unit Of Measurement": "nM", "IC50": 1900}

1. CCC(C)N1Cc2c(NCc3cnc4ccccc4c3)nc(N3CCN(C(C)=O)CC3)nc2C1=O (single isomer, unassigned; (+)) [Example 308]
2. CC(C)N1Cc2c(NC(C)(C)Cc3ccc(F)cc3)nc(N3CCN4C(=O)CCC4C3)nc2C1=O (stereo not shown) [Example 134]
Of 1 and 2 , which shows the smaller IC50 value? Select an item and report its label.
1
(1: 10300 nM, 2: 49800 nM)

a. CC(=O)N1CCN(c2nc3c(c(N4CCC[C@@H]4Cc4ccccc4)n2)CN(C(C)C)C3=O)CC1 [Example 116]
b. CC(=O)N1CCN(c2nc(NC(C)c3cnn(-c4ccccc4F)c3)c3c(n2)C(=O)N(C(C)C)C3)CC1 (stereo not shown) [Example 149]
c. CC(=O)N1CCN(c2nc(NC(C)(C)Cc3ccc(F)cc3)c3c(n2)C(=O)N(C(C)C)C3)CC1C (stereo not shown) [Example 138]
d. COc1cccc(C2CCCN2c2nc(N3CCN(C(C)=O)CC3)nc3c2CN(C(C)C)C3=O)c1 (stereo not shown) [Example 131]
e. CC(=O)N1CCN(c2nc(NCc3cc4ccccc4c(N(C)C)n3)c3c(n2)C(=O)N(C(C)C)C3)CC1 [Example 252]
Rank the 5 compounds: largest IC50 first, smallest last. Form entry: labels listed in requested order.
d, c, a, b, e
(d: 40000 nM, c: 16200 nM, a: 10300 nM, b: 5070 nM, e: 2110 nM)

a. CC(=O)N1CCN(c2nc(NCc3cnc4ccccc4c3)c3c(n2)C(=O)N(C(C)C)C3)CC1C (stereo not shown) [Example 142]
b. CC(=O)N1CCN(c2nc(N[C@H](C)c3cnc4ccccc4c3)c3c(n2)C(=O)N(C(C)C)C3)CC1 (single isomer, unassigned) [Example 344]
c. CC(=O)N(C)C1CCN(c2nc(NCc3cnc4ccccc4c3)c3c(n2)C(=O)N(C(C)C)C3)C1 (stereo not shown) [Example 208]
d. CC(=O)N1CCN(c2nc3c(c(N(Cc4cc5ccccc5cn4)CC4CC4)n2)CN(C(C)C)C3=O)CC1 [Example 253]
e. CC(=O)N1CCN(c2nc(N[C@H](C)c3ccc(OC(F)F)cc3)c3c(n2)C(=O)N(C(C)C)C3)CC1 [Example 114]
Put the entries in order of IC50, starting with the largest number. Your reply should list the labels following the order given in the request.
c, a, e, d, b

I. CC(=O)N1CCN(c2nc(NCc3ccc4nc(C)ccc4c3)c3c(n2)C(=O)N(C(C)C)C3)CC1 [Example 242]
II. CC(=O)N1CCN(c2nc3c(c(N4CCC[C@@H]4C(=O)OCc4ccccc4)n2)CN(C(C)C)C3=O)CC1 [Example 265]
Form field 'greater IC50' accepts I or II ; which applies? // return label of chosen record
II
(II: 15700 nM, I: 10400 nM)

A. CCOc1ccc(C2CCCN2c2nc(N3CCN(C(C)=O)CC3)nc3c2CN(C(C)C)C3=O)cc1 (stereo not shown) [Example 272]
B. CC(=O)N1CCN(c2nc(NC(C)c3cnn(-c4ccccc4)c3)c3c(n2)C(=O)N(C(C)C)C3)CC1 (stereo not shown) [Example 150]
Which of the two items, A and B , has the greater recorded IC50? Record your answer as the label of the chosen record.
A

1. CCC(c1ccccc1)C1CCCN1c1nc(N2CCN(C(C)=O)CC2)nc2c1CN(C(C)C)C2=O (stereo not shown) [Example 275]
2. CC(=O)N1CCN(c2nc(N[C@H](C)c3cnc4ccccc4c3)c3c(n2)C(=O)N(C(C)C)C3)CC1 [Example 233]
Input pair: 1 , 2 . Output: entry with lower IC50. Returns: label corresponding to the selected item.
2
(2: 74.4 nM, 1: 10300 nM)

Cited source for all entries: patent US20090099195A1
